Test system: HeLa Kyoto;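 note: HeLa Kyoto cells arrested at G1/S by double thymidine block, proteins quantified by TMT10plex mass spectrometry in mild NP-40 versus SDS extracts, three biological replicates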
Assay: solubility in G1/S (NP-40 vs SDS abundance) (log2 ratio); higher = more soluble
Details: cell cycle stage: G1/S
measurement_kind: solubility in G1/S (log2)
API doc: respond with a numeric literal and nothing else, no unit.

Some sequences with recorded solubility in G1/S (log2):
MYLQVETRTSSRLHLKRAPGIRSWSLLVGILSIGLAAAYYSGDSLGWKLFYVTGCLFVAVQNLEDWEEAIFDKSTGKVVLKTFSLYKKLLTLFRAGHDQVVVLLHDVRDVSVEEEKVRYFGKGYMVVLRLATGFSHPLTQSAVMGHRSDVEAIAKLITSFLELHCLESPTELSQSSDSEAGDPASQS [C17ORF62] :: -0.124
MANEAYPCPCDIGHRLEYGGLGREVQVEHIKAYVTKSPVDAGKAVIVIQDIFGWQLPNTRYIADMISGNGYTTIVPDFFVGQEPWDPSGDWSIFPEWLKTRNAQKIDREISAILKYLKQQCHAQKIGIVGFCWGGTAVHHLMMKYSEFRAGVSVYGIVKDSEDIYNLKNPTLFIFAENDVVIPLKDVSLLTQKLKEHCKVEYQIKTFSGQTHGFVHRKREDCSPADKPYIDEARRNLIEWLNKYM [CMBL] :: 0.267
MSAPFEERSGVVPCGTPWGQWYQTLEEVFIEVQVPPGTRAQDIQCGLQSRHVALSVGGREILKGKLFDSTIADEGTWTLEDRKMVRIVLTKTKRDAANCWTSLLESEYAADPWVQDQMQRKLTLERFQKENPGFDFSGAEISGNYTKGGPDFSNLEK [NUDCD2] :: 0.372

Note: attention shifts to another entry.
q: Sample MSKKKGLSAEEKRTRMMEIFSETKDVFQLKDLEKIAPKEKGITAMSVKEVLQSLVDDGMVDCERIGTSNYYWAFPSKALHARKHKLEVLESQLSEGSQKHASLQKSIEKAKIGRCETEERTRLAKELSSLRDQREQLKAEVEKYKDCDPQVVEEIRQANKVAKEAANRWTDNIFAIKSWAKRKFGFEENKIDRTFGIPEDFDYID [MND1] — what was its solubility in G1/S (log2)?
a: 0.61
